Tested on: Escherichia coli
Assay: Inhibition of Escherichia coli N-terminal His6-tagged DNA gyrase subunit GyrA/GyrB ATPase activity at 100 to 500 uM after 40 mins by spectrophotometric analysis
Activity calls are given as the source filed them. The rule behind the calls is not given here.
MEASUREMENT_NAME: inhibition

CCNC(=O)Nc1nc2ccccc2s1 :: Active
CCNC(=O)Nc1cc2ccccc2cn1 :: Active
CCNC(=O)Nc1nc2c(s1)CCCC2 :: Active
CCNC(=O)Nc1cnc2ccccc2n1 :: Active
CCNC(=O)Nc1nc2c(s1)CNCC2 :: Active

INPUT: inhibition of "CCNC(=O)Nc1nc2ccncc2s1" on Escherichia coli?
OUTPUT: Active

INPUT: Now consider "CCNC(=O)Nc1nccc2ccccc12" .
OUTPUT: Active

INPUT: Also need "CCNC(=O)Nc1nc2c(s1)NC(=O)CC2" , thanks.
OUTPUT: Active

----------
Target: UniProt:Q12809
Sequence (Q12809 whole entry): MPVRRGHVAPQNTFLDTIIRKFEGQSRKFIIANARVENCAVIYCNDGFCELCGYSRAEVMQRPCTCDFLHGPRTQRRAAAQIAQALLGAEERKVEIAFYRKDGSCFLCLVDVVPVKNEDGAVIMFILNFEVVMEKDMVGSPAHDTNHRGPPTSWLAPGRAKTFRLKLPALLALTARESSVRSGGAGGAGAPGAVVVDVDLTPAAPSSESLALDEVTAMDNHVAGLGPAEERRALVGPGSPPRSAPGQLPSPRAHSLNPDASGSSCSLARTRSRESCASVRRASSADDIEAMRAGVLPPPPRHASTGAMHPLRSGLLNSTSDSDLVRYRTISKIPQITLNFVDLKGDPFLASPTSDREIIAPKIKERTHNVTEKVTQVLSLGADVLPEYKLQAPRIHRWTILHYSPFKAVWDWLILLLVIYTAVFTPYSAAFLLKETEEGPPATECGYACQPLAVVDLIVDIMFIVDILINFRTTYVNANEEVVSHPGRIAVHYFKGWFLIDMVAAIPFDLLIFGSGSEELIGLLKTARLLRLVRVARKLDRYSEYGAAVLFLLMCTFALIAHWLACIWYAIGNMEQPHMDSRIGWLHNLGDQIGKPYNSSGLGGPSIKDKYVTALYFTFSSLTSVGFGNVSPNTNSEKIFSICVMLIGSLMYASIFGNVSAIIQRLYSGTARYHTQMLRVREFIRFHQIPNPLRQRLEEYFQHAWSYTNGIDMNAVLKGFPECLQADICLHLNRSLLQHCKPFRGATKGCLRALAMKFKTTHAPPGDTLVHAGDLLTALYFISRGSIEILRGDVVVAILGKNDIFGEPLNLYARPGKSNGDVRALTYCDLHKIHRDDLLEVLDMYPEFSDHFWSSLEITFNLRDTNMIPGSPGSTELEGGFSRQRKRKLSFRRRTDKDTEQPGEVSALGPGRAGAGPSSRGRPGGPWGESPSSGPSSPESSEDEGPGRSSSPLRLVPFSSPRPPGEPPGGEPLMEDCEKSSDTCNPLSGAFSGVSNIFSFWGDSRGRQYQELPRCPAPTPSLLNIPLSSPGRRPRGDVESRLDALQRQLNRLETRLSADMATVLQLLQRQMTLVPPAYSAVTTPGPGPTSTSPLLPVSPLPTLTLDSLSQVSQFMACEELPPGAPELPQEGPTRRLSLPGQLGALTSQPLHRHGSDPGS
Experiment: Inhibition of human ERG expressed in CHO cells at 10 uM after 3 mins at -80 mV holding potential by Qpatch assay
Assay type: cell-based
Conditions: CHO cells expressing human ERG
MEASUREMENT_NAME: inhibition at 0.05 h, 10 µM (%)
Field: numeric (%). Do not append units.

Worked cases, answers included:
CCNC(=O)Nc1cc2c(-c3ccncc3)ccc(CNC(=O)OC(C)C)c2cn1 :: 63
CCNC(=O)Nc1cc2c(-c3ccnc(C)c3)ccc(COC(=O)N3CCNCC3)c2cn1 :: 0
CCNC(=O)Nc1cc2c(-c3ccnc(C)c3)ccc(COC(=O)N3CCN(CC4CC4)CC3)c2cn1.Cl :: 74
CCNC(=O)Nc1cc2c(-c3ccncc3)ccc(CNC(=O)OCCNCC(C)(C)C)c2cn1 :: 25
CCNC(=O)Nc1cc2c(-c3ccnc(C)c3)ccc(CNC(C)=O)c2cn1 :: 4
CCNC(=O)Nc1cc2c(-c3ccnc(C)c3)ccc(CNC(=O)OC)c2cn1 :: 67

INPUT: Can you look up the measured inhibition at 0.05 h, 10 µM of "CCNC(=O)Nc1cc2c(-c3ccnc(C)c3)ccc(COC(=O)NC3CCNCC3)c2cn1" for me?
OUTPUT: 2

INPUT: Would you kindly repeat that for "CCNC(=O)Nc1cc2c(-c3ccnc(C)c3)ccc(COC(=O)N3CCN(C)CC3)c2cn1" ?
OUTPUT: 15

INPUT: // next record "CCNC(=O)Nc1cc2c(-c3ccnc(C)c3)ccc(CNC(=O)OCCO)c2cn1"
OUTPUT: 19

----------
# MIC annotations
Tested on: Staphylococcus aureus
Assay: Antibacterial activity against methicillin-sensitive Staphylococcus aureus A-1178 by broth microdilution method
Type: functional
Respond with the bare value in µg/mL.

CCNC(=O)Nc1cc2c(-c3ccnc(C)c3)ccc(CNC(=O)OC)c2cn1 :: 0.06

INPUT: # MIC lookup, item "CCNC(=O)Nc1cc2c(-c3ccnc(C)c3)ccc(COC(=O)N3CCN(C)CC3)c2cn1"
OUTPUT: 0.5

INPUT: Same read-out for "CCNC(=O)Nc1cc2c(-c3ccnc(C)c3)ccc(CNC(=O)OCCOC)c2cn1" ?
OUTPUT: 0.125

INPUT: Try this compound next: "CCNC(=O)Nc1cc2c(-c3ccnc(C)c3)ccc(CNC(C)=O)c2cn1"
OUTPUT: 0.5

----------
Test system DNA gyrase (Staphylococcus aureus, UniProt P0A0K8+P20831), IC50 listed for each of the compounds.

The cases that follow already have their IC50 on record.
CCNC(=O)Nc1cc2ccccc2cn1 :: 128000 nM
CCNC(=O)Nc1cc2c(-c3ccnc(C)c3)ccc(Cc3cccc(C(=O)O)c3)c2cn1 :: 8 nM
CCNC(=O)Nc1cc2c(-c3cnn(C)c3)ccc(C)c2cn1.Cl :: 125 nM

INPUT: Form field: reported IC50 of "CCNC(=O)Nc1cc2c(-c3ccncc3)ccc(CNC(=O)OCCO)c2cn1"
OUTPUT: < 4 nM

INPUT: Do the same for "CCNC(=O)Nc1cc2c(-c3ccnc(C)c3)ccc(CNC(=O)OCCOC)c2cn1" please
OUTPUT: 8 nM

INPUT: Lookup "CCNC(=O)Nc1cc2c(-c3ccc(C#N)cc3)ccc(C)c2cn1"
OUTPUT: 30 nM

INPUT: For "CCNC(=O)Nc1cc2c(-c3ccncc3)ccc(CNC(=O)OCCNCC(C)(C)C)c2cn1" then?
OUTPUT: 8 nM

INPUT: Entry "CCNC(=O)Nc1cc2c(-c3cccnc3)cccc2cn1" please
OUTPUT: 8000 nM

INPUT: What do we get for "CCNC(=O)Nc1cc2c(-c3ccnc(C)c3)ccc(CNC(=O)OCCO)c2cn1" ?
OUTPUT: 30 nM

INPUT: Here is the next compound: "CCNC(=O)Nc1cc2c(-c3ccncn3)ccc(C)c2cn1"
OUTPUT: 500 nM

INPUT: Same thing, different compound: "CCNC(=O)Nc1cc2c(-c3ccnc(C)c3)ccc(Nc3cccc(C(=O)O)c3)c2cn1"
OUTPUT: 8 nM

INPUT: Can you check "CCNC(=O)Nc1cc2c(-c3cccnc3)ccc(C)c2cn1" next?
OUTPUT: 125 nM

----------
Assay: Solubility of compound in citrate buffer at pH 4
Assay type: physicochemical
MEASUREMENT_NAME: solubility (µg/mL)
Could you give me the number in µg/mL? Just the number is fine.

INPUT: If you can, please state the reported solubility value of "CCNC(=O)Nc1cc2c(-c3ccnc(C)c3)ccc(CNC(=O)OC)c2cn1" .
OUTPUT: 340

----------
System: Staphylococcus aureus
Assay: Antibacterial activity against Staphylococcus aureus ATCC 29213 by broth microdilution method
Format: functional
Overview of reported MIC across a group of molecules:

# example entries with known answers
CCNC(=O)Nc1cc2c(-c3cnn(C)c3)ccc(C)c2cn1.Cl :: 4 µg/mL
CCNC(=O)Nc1cc2c(-c3ccc(C#N)cc3)ccc(C)c2cn1 :: > 32 µg/mL
CCNC(=O)Nc1cc2c(-c3ccncc3)ccc(C)c2cn1 :: 0.5 µg/mL

INPUT: Which MIC value belongs to "CCNC(=O)Nc1cc2c(-c3ccnc(C)c3)ccc(CNC(=O)C3CC3)c2cn1" ?
OUTPUT: 0.06 µg/mL

INPUT: Quick one: "CCNC(=O)Nc1cc2c(-c3ccnc(C)c3)ccc(COC(=O)NC3CCNCC3)c2cn1"
OUTPUT: 16 µg/mL

INPUT: Next record, please: "CCNC(=O)Nc1cc2c(-c3ccncn3)ccc(C)c2cn1"
OUTPUT: 4 µg/mL

----------
Assay: Oral bioavailability in Wistar rat at 2 mg/kg administered as suspension up to 24 hrs by LC-MS/MS analysis
Assay type: ADME, organism-based
Details: in vivo
MEASUREMENT_NAME: bioavailability (%)
A number alone suffices; assume %.

INPUT: Sample "CCNC(=O)Nc1cc2c(-c3ccnc(C)c3)ccc(CNC(=O)OC)c2cn1" — what was its bioavailability?
OUTPUT: 30

----------
Values of IC50 reported for DNA gyrase (Staphylococcus aureus, UniProt P0A0K8+P20831) appear below.
State the answer as a number, implicitly in nM.

CCNC(=O)Nc1cc2cccc(C)c2cn1 :: 8000
CCNC(=O)Nc1cc2c(-c3ccnc(C)c3)ccc(COC(=O)NC3CCNCC3)c2cn1 :: 8
CCNC(=O)Nc1cc2c(-c3ccnc(C)c3)ccc(CNC(=O)CCOC)c2cn1 :: 8
C#CCOC(=O)NCc1ccc(-c2ccnc(C)c2)c2cc(NC(=O)NCC)ncc12 :: 8

# ---- query compound ----
INPUT: IC50 lookup needed for "CCNC(=O)Nc1cc2c(-c3ccnc(C)c3)ccc(Cn3ccnn3)c2cn1" , thanks.
OUTPUT: 8

----------
logD for assorted molecules
Assay: Octanol-phosphate buffer partition coefficient, logD of compound at pH 7.4 by LC/UV analysis
Type: physicochemical
Output spec: single numeric token, no unit.

CCNC(=O)Nc1cc2c(-c3ccnc(C)c3)ccc(CNC(C)=O)c2cn1 :: 2.6

Now look at this one.
INPUT: Value lookup for logD; key = "CCNC(=O)Nc1cc2c(-c3ccncc3)ccc(CNC(=O)OCCO)c2cn1"
OUTPUT: 2

----------
Assay: Dissociation constant, pKa of the compound by pH metric assay
Format: physicochemical
# binarize pKa: threshold 8 inclusive, high side 1, low side 0

Some solved cases for reference:
CCNC(=O)Nc1cc2c(-c3ccnc(C)c3)ccc(COC(=O)N3CCN(C)CC3)c2cn1 :: 0
CCNC(=O)Nc1cc2c(-c3ccncc3)ccc(CNC(=O)OCCNC)c2cn1 :: 1
CCNC(=O)Nc1cc2c(-c3ccnc(C)c3)ccc(COC(=O)NC3CCNCC3)c2cn1 :: 1
CCNC(=O)Nc1cc2c(-c3ccncc3)ccc(CNC(=O)OCCNCC(C)(C)C)c2cn1 :: 1
CCNC(=O)Nc1cc2c(-c3ccncc3)ccc(CNC(=O)OCCN3CCOCC3)c2cn1.Cl :: 0

INPUT: Exam item: decide whether the reported pKa for "CCNC(=O)Nc1cc2c(-c3ccnc(C)c3)ccc(COC(=O)N3CCN(CC4CC4)CC3)c2cn1.Cl" is at least 8.
OUTPUT: 0

INPUT: What do you get for CCNC(=O)Nc1cc2c(-c3ccnc(C)c3)ccc(CNC(=O)OC3CCNCC3(F)F)c2cn1 (stereo not given) ?
OUTPUT: 0

INPUT: Also CCNC(=O)Nc1cc2c(-c3ccnc(C)c3)ccc(COC(=O)N[C@@H]3CCNC[C@H]3F)c2cn1 (relative stereo) ?
OUTPUT: 0
